Target: human P2X7 receptor (Homo sapiens, UniProt Q99572, R270H/Y155H)
Test: Evaluation of human P2X7 receptor inhibitory activity (Yo-Pro uptake, BzATP stimulation, FLIPR TETRA)
Assay type: cell-based
Details: 1321N1 cells stably expressing human P2X7 receptor; BzATP stimulation, Yo-Pro uptake; read-out: IC50 (antagonistic activity for the human P2X7 receptor), class symbol
pIC50: −log10 of the molar value.
Recorded measurements of pIC50, one per entry

Completed entries (count: 10):
{"columns": ["COMPOUND STRUCTURE", "pIC50"],
 "data": [
  ["COc1cn(Cc2cc(F)cc(Cl)c2)c(Nc2cc(OC(C)C)ccc2C)nc1=O", "7.00 to 8.00"],
  ["CCc1ccccc1Nc1nc(=O)c(OC)cn1Cc1cc(F)cc(Cl)c1", "7.00 to 8.00"],
  ["COc1ccc(Nc2nc(=O)c(OC)cn2Cc2cccc(F)c2)c(C)c1", "> 8.00"],
  ["CCc1cc2c(cc1Nc1nc(=O)c(OC)cn1Cc1ccccc1)CCC2", "> 8.00"],
  ["COc1cn(Cc2ccccc2)c(Nc2ccc(N3CCOCC3)cc2C)nc1=O", "6.30 to 7.00"],
  ["COc1cn(Cc2ccc(F)c(Cl)c2)c(Nc2cc(S(C)(=O)=O)ccc2C)nc1=O", "7.00 to 8.00"],
  ["COc1ccccc1CNc1nc(=O)c(OC)cn1Cc1ccccc1", "6.00 to 6.30"],
  ["COc1cn(Cc2ccc(F)c(Cl)c2)c(Nc2ccc(N3CCOCC3)cc2C)nc1=O", "7.00 to 8.00"],
  ["COc1cn(Cc2cc(F)cc(F)c2)c(Nc2cc(OCC(F)(F)F)ccc2C)nc1=O", "7.00 to 8.00"],
  ["COc1cn(Cc2ccccc2)c(Nc2ccc(Br)cc2Cc2ccccc2)nc1=O", "6.30 to 7.00"]
]}

Lookup result for COc1cc(C)c(Nc2nc(=O)c(OC)cn2Cc2ccc(F)c(Cl)c2)cc1OC ; measured pIC50: > 8.00

Short answer for COc1cn(Cc2ccccc2)c(Nc2cc([N+](=O)[O-])ccc2C)nc1=O : pIC50 was 6.00 to 6.30

Just so you know, measured pIC50 for CCc1ccc(F)cc1Nc1nc(=O)c(OC)cn1Cc1ccc(F)c(Cl)c1 came out at 7.00 to 8.00

Lab note: measured pIC50 of COc1cc(C)c(Nc2nc(=O)c(Cl)cn2Cc2ccc(F)c(Cl)c2)cc1OC was > 8.00

Entry Cc1c(Cl)cccc1Nc1nc(=O)c(OC(C)C)cn1Cc1ccccc1 — recorded pIC50 = 7.00 to 8.00

The compound COc1cn(Cc2ccc(F)c(Cl)c2)c(Nc2cc(Cl)c(Cl)cc2C)nc1=O showed pIC50 equal to 7.00 to 8.00

The measured pIC50 associated with COc1cn(Cc2ccc(F)c(F)c2)c(Nc2cc(-c3nnco3)ccc2C)nc1=O reads 7.00 to 8.00

###

Each record here notes measured IC50.
Molecular target: human P2X7 receptor (Homo sapiens, UniProt Q99572, R270H/Y155H)
Test: Evaluation of human P2X7 receptor inhibitory activity (Yo-Pro uptake, BzATP stimulation, FLIPR TETRA)
Type: cell-based
Conditions: 1321N1 cells stably expressing human P2X7 receptor; BzATP stimulation, Yo-Pro uptake; read-out: IC50 (antagonistic activity for the human P2X7 receptor)
Enter your answer as a number in nM; do not include the unit.

{"columns": ["COMPOUND", "IC50 (nM)"],
 "data": [
  ["Cc1cc2c(cc1Nc1nc(=O)c(Cl)cn1Cc1ccccc1)OCCO2 [Compound I-0370]", 47],
  ["COc1cn(Cc2cc(C)cc(F)c2)c(Nc2cccc(Cl)c2C)nc1=O [Compound I-0425]", 19],
  ["COc1cn(Cc2ccc(F)c(Cl)c2)c(Nc2cccc3occc23)nc1=O [Compound I-0636]", 50],
  ["COc1ccc(F)c(Nc2nc(=O)c(F)cn2Cc2cc(F)c(F)c(F)c2)c1 [Compound I-1296]", 11]
]}

Input C=Cc1ccccc1Nc1nc(=O)c(F)cn1Cc1cc(F)c(F)c(F)c1 [Compound I-1188] . Output IC50: 4

Recorded IC50 (compound COc1cc(C)c(Nc2nc(=O)c(C)nn2Cc2cc(F)cc(F)c2)cc1OC [Compound I-1261] ): 16

// Cc1nc2cc(C)c(Nc3nc(=O)c(Cl)cn3Cc3ccccc3)cc2s1 [Compound I-0786] : IC50 value = 25

For record COc1cn(Cc2ccc(F)c(Cl)c2)c(Oc2cc(-c3ncco3)ccc2C)cc1=O [Compound I-0965] the listed IC50 is 440

Looking up COc1cn(Cc2cc(F)c(F)cc2F)c(Nc2cccc(Cl)c2C)nc1=O [Compound I-0347] , I found its IC50 recorded as 20

###

Entries and their IC50 values follow.
Target: human P2X7 receptor (Homo sapiens, UniProt Q99572, R270H/Y155H)
Experiment: Evaluation of human P2X7 receptor inhibitory activity (Yo-Pro uptake, BzATP stimulation, FLIPR TETRA)
Type: cell-based
Settings: antagonistic activity for the human P2X7 receptor; read-out: IC50

{"columns": ["COMPOUND STRUCTURE", "VALUE"],
 "data": [
  ["COc1cn(Cc2ccc(F)c(Cl)c2)c(Nc2cc3[nH]ccc3cc2C)nc1=O", "< 10 nM"],
  ["CCOc1ccc(Nc2nc(=O)c(OC)cn2Cc2ccccc2)c(C)c1", "100 to 500 nM"],
  ["Cc1ccc(S(C)(=O)=O)cc1Nc1nc(=O)ccn1Cc1cc(F)c(F)c(F)c1", "10 to 100 nM"],
  ["COc1cn(Cc2ccc(F)c(Cl)c2)c(Nc2cc(N3CCOCC3)ccc2C)nc1=O", "10 to 100 nM"]
]}

Sample COc1ccc(C)c(Nc2nc(=O)c(C#N)cn2Cc2cc(F)c(F)c(F)c2)c1 , system: human P2X7 receptor (Homo sapiens, UniProt Q99572, R270H/Y155H). Its IC50 is 10 to 100 nM

Field IC50 (human P2X7 receptor (Homo sapiens, UniProt Q99572, R270H/Y155H)), entry COc1cc(Nc2nc(=O)c(F)cn2Cc2cc(F)c(F)c(F)c2)c(C)nc1F : 10 to 100 nM

Item Cc1cc2c(cc1Nc1nc(=O)c(F)cn1Cc1cc(F)cc(F)c1)COC2 was tested on human P2X7 receptor (Homo sapiens, UniProt Q99572, R270H/Y155H); the reported IC50 is 10 to 100 nM

Form field, IC50 with human P2X7 receptor (Homo sapiens, UniProt Q99572, R270H/Y155H), item COc1ccc(Nc2nc(=O)c(OC)cn2Cc2cc(F)cc(Cl)c2)c(C)c1 : 10 to 100 nM

###

Biological target: human P2X7 receptor (Homo sapiens, UniProt Q99572, R270H/Y155H)
Assay: Evaluation of human P2X7 receptor inhibitory activity (Yo-Pro uptake, BzATP stimulation, FLIPR TETRA)
Type: cell-based
Details: 1321N1 cells stably expressing human P2X7 receptor; BzATP stimulation, Yo-Pro uptake; read-out: IC50 (antagonistic activity for the human P2X7 receptor), class symbol
REPORTED PROPERTY: IC50

Example cases with answers are listed next.
{"columns": ["MOLECULE", "TARGET DESC", "VALUE"],
 "data": [
  ["COc1cn(Cc2ccc(F)c(F)c2)c(Nc2cc(C)c(F)cc2C)nc1=O", "human P2X7 receptor (Homo sapiens, UniProt Q99572, R270H/Y155H)", "< 10 nM"],
  ["COc1cn(Cc2ccccc2)c(Nc2cc(C(F)(F)F)ccc2C)nc1=O", "human P2X7 receptor (Homo sapiens, UniProt Q99572, R270H/Y155H)", "100 to 500 nM"],
  ["COc1cn(Cc2ccc(F)c(Cl)c2)c(Nc2cc(OC(C)C)ccc2C)nc1=O", "human P2X7 receptor (Homo sapiens, UniProt Q99572, R270H/Y155H)", "10 to 100 nM"],
  ["COc1cn(Cc2ccccc2)c(Nc2cccc(OC(C)C)c2C)nc1=O", "human P2X7 receptor (Homo sapiens, UniProt Q99572, R270H/Y155H)", "100 to 500 nM"],
  ["COc1cn(Cc2cc(F)cc(F)c2)c(Nc2ccc(N3CCOCC3)cc2C)nc1=O", "human P2X7 receptor (Homo sapiens, UniProt Q99572, R270H/Y155H)", "10 to 100 nM"],
  ["COc1cn(Cc2ccccc2)c(Nc2ccccc2Cc2ccccc2)nc1=O", "human P2X7 receptor (Homo sapiens, UniProt Q99572, R270H/Y155H)", "10 to 100 nM"],
  ["Cc1cccc(Nc2nc(=O)c(F)cn2Cc2cccc(Cl)c2)c1C", "human P2X7 receptor (Homo sapiens, UniProt Q99572, R270H/Y155H)", "< 10 nM"],
  ["COc1cn(Cc2ccccc2Cl)c(Nc2cc(C)c(C)cc2C)nc1=O", "human P2X7 receptor (Homo sapiens, UniProt Q99572, R270H/Y155H)", "10 to 100 nM"]
]}

IC50 of Cc1c(Cl)cccc1Nc1nc(=O)c(-c2ccccc2)cn1Cc1ccccc1 , assay on human P2X7 receptor (Homo sapiens, UniProt Q99572, R270H/Y155H), is 500 to 1000 nM

IC50 on human P2X7 receptor (Homo sapiens, UniProt Q99572, R270H/Y155H) for CCOc1ccc(C)c(Nc2nc(=O)c(OC)cn2Cc2cccc(Cl)c2)c1 is 10 to 100 nM

human P2X7 receptor (Homo sapiens, UniProt Q99572, R270H/Y155H) IC50 of CCc1cc(Br)ccc1Nc1nc(=O)c(OC)cn1Cc1ccccc1 is 10 to 100 nM

The observed IC50 for COc1cn(Cc2cc(F)cc(C(F)(F)F)c2)c(Nc2cccc(Cl)c2C)nc1=O when tested with human P2X7 receptor (Homo sapiens, UniProt Q99572, R270H/Y155H) stands at 100 to 500 nM
